- ASSAY_EXPLANATION: qHTS Assay for Identifying Gametocytocidal Compounds (AID 743244);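 further: on the % scale 0 is the no-effect control and ±100 the full control effect; actives lower the fluorescent signal which means gametocytes are killed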
- MEASUREMENT_PARAMETERS: P. falciparum 3D7 stage III-V gametocytes, alamarBlue, 72 h; hits give low values
Inconclusive results are not listed.

COMPOUND	max response (%)
Nc1ccc(S(=O)(=O)Nc2ccccn2)cc1	3.9
CCn1cc(C(=O)O)c(=O)c2cc(F)c(N3CCNCC3)nc21	0.203
N[C@@H](Cc1ccc(O)c(O)c1)C(=O)O	20.2
C[C@]12C=CC(=O)C=C1CC[C@@H]1[C@@H]2C(=O)C[C@@]2(C)[C@H]1CC[C@]2(O)C(=O)CO	18
O=C(O)c1ccc(-n2nc(-c3ccccc3O)nc2-c2ccccc2O)cc1	-16.4
NCCCC(O)(P(=O)(O)O)P(=O)(O)O	14.9
CC(C)(C#N)c1cc(Cn2cncn2)cc(C(C)(C)C#N)c1	7.01
COc1ccccc1OCC(O)COC(N)=O (configuration not stated)	-1.63
CCc1cc(C(N)=S)ccn1	-11
OCc1ccc(-c2nn(Cc3ccccc3)c3ccccc23)o1	-5.09
COc1cccc(N(C)C(=S)Oc2ccc3c(c2)CCCC3)n1	-0.766
CCCCCCNC(=O)n1cc(F)c(=O)[nH]c1=O	-3.88
